Record form. Attribute: log10 TGI. Fill in for each entry.
# Test system: SNB-75 CNS
# Experimental details: NCI tumour cell line growth inhibition, 48 h
// units: µM (pre-log); metric: TGI; scale: log10

# Molecule, Readout value
rows = [
    ("COc1cc(C(=O)N[C@H]2CCc3cc(OC)c(OC)c(OC)c3-c3ccc(SC)c(=O)cc32)cc(OC)c1OC", 1.69),
]

Consider the following items and state reported log10 TGI for each.
1. C/C(=N\NC(=O)c1ccc(Cl)cc1)c1nc2ncccc2[nH]1
2. c1cc2c3c(c1)c1cc4c(cc1c[n+]3CC2)OCO4
3. COc1cc(C(=O)Oc2c(C(C)=O)sc3c2c(=O)n(-c2ccccc2)c(=S)n3-c2ccccc2)cc(OC)c1OC
4. CCSc1ccc([C@@H]2[C@@H](O)C(=O)N2c2cc(OC)c(OC)c(OC)c2)cc1
5. N#Cc1c(Cl)c2cccnc2n2c1nc1ccccc12
6. COc1ccc2c(c1)CN([C@@H](C)[C@H]1CC[C@H]3[C@@H]4CC[C@H]5C[C@@H](O)CC[C@]5(C)[C@H]4CC[C@]13C)CO2

Result block:
1: 1.25; 2: 0.91; 3: 1.70; 4: 1.81; 5: 1.19; 6: 0.69

Provide the reported log10 TGI of each entry below, same order.
1. Cc1cc(CCl)c(C)cc1CCl
2. CC1(C)COC2C(N(Cc3ccccc3)Cc3ccccc3)C(=O)N21 (stereo not given)
3. C/C(=C(/c1ccccc1)c1ccc(OCC(O)CNCCN2CCOCC2)cc1)c1ccccc1 (stereo not given)
4. C=C1C(=O)O[C@H]2[C@H]1CC/C(COC(=O)N[C@H]1C[C@H](O[C@H]3C[C@](O)(C(=O)CO)Cc4c(O)c5c(c(O)c43)C(=O)c3c(OC)cccc3C5=O)O[C@@H](C)[C@H]1O)=C\CC[C@@]1(C)O[C@@H]21
5. O=C1/C(=C\c2ccc(Br)cc2)CCCc2ccccc21
6. O=C1NC(Nc2ccccc2)=N/C1=C\c1c(Cl)cccc1Cl

Result block:
1. 0.62
2. 1.61
3. 1.19
4. 1.38
5. 1.72
6. 1.63

###

So I've got a bunch of compounds here, and I need their TGI values.
# Test system: A549 NSCLC
# Experimental details: NCI tumour cell line growth inhibition, 48 h

As a guide, the following entries are already answered.
# Compound, Test target, TGI
rows = [
    ("Nc1c(C(=O)c2cccc(C#CCN3CCCCC3)c2)cnn1-c1ccc(F)cc1", "A549 NSCLC", "> 25 µM"),
    ("COc1ccc(C(=O)c2sc3nc(-c4ccccc4OC)ccc3c2N)cc1OC", "A549 NSCLC", "> 100 µM"),
    ("C=C1C(=O)OC2C1CCC(C)C1(O)C=CC(=O)C21C (configuration not stated)", "A549 NSCLC", "> 10 µM"),
    ("COc1ccccc1-c1cc(=O)c2cc(C)c(C)c(C(=O)O)c2o1", "A549 NSCLC", "> 100 µM"),
    ("O=c1oc(-c2ccc(O)cc2)cc2cc(O)ccc12", "A549 NSCLC", "> 100 µM"),
]

Give measured TGI for every item shown.
1. CC[C@@H](CCCCC1CC[C@H]2CC(=O)C[C@@H]12)OC (some centres not stated)
2. COc1ccc2c(O)c(S(=O)(=O)c3ccc(C)cc3)c(=O)oc2c1OC
3. CCOC(=O)c1sc2c(c1OC(=O)c1cc(OC)c(OC)c(OC)c1)c(=O)n(-c1ccccc1)c(=S)n2-c1ccccc1

Result block:
1: > 100 µM; 2: > 100 µM; 3: > 100 µM
